# Test system: PPARa:RXRa (NR concentration 270 nM, RXRa partner concentration 90 nM)
# Experimental Protocol: PBM binding z-score (relative to random genomic background probes); higher = stronger binding; sequences stand for … in GC…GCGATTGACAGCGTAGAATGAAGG
Cut-off 1 on PBM binding z-score, inclusive. At or above means 1.0; below means 0.0.

- Sequence Record: "ATACCAAGGTGATCGTGAGATCGTTGATACTAAC"
  Label Class: 0.0
- Sequence Record: "ATCGCTAGGTAAAGATAGTTCAGTGAATGCAAAT"
  Label Class: 0.0
- Sequence Record: "GTACCAAGGTGAATCGGTCGTTGATGAGTAGGCG"
  Label Class: 1.0
- Sequence Record: "ATATGTAGGTTATGGGGTCATTCAGTTTGCGCAT"
  Label Class: 1.0
- Sequence Record: "CGAACTCGGTCATTGACAGGACAGTGAATAGTAA"
  Label Class: 1.0
- Sequence Record: "TCTATTAGTTGATTTGGGCAACCGAAACAGCGGA"
  Label Class: 0.0
- Sequence Record: "AGAACGAGGGCACGCGGAGTTGATAGCAGAGTAG"
  Label Class: 1.0
- Sequence Record: "ACTGGCAGGCCAAGGGTCACTCAAGATTAGTCCG"
  Label Class: 1.0
- Sequence Record: "GCTGCTAGGTCAACTGATGCTCAGCTAAAGCTCG"
  Label Class: 1.0
- Sequence Record: "CCTGCTAGGTCATTGTCAGCTAATCTACAGTATG"
  Label Class: 1.0
- Sequence Record: "TCTATTAGTTGATTAGGGCAACCGGAACAGCGGA"
  Label Class: 0.0
- Sequence Record: "CGAACTAGGTCATTCACAGGACAGTGAATAGTAA"
  Label Class: 1.0
